// provenance: BindingDB's records for doi:10.1021/jm00088a013

Target: Adenosylhomocysteinase (Bos taurus)
Assay: Inhibitory activity against bovine liver S-adenosyl-L-homocysteine hydrolase (AdoHcy) rate of inactivation by NpcA
Kindly supply the reported pKi values for the records listed here.
Please keep in mind that pKi is minus log10 of the molar concentration; only the number is needed.

QUERY: Suppose we examine the compound C[C@H]1C[C@@H](n2cnc3c(N)ncnc32)[C@H](O)[C@@H]1O ; what pKi value has been reported?
RESULT: 7.57

QUERY: # input compound: CC[C@H]1C[C@@H](n2cnc3c(N)ncnc32)[C@H](O)[C@@H]1O ; wanted: its pKi
RESULT: 6.23

QUERY: I am curious: what pKi value has been reported for C[C@@H]1C[C@@H](n2cnc3c(N)ncnc32)[C@H](O)[C@@H]1O ?
RESULT: 5.30

QUERY: So what's the measured pKi for this one? CC1=C[C@@H](n2cnc3c(N)ncnc32)[C@H](O)[C@@H]1O
RESULT: 5.04

QUERY: I have this compound here, C=C[C@H]1C[C@@H](n2cnc3c(N)ncnc32)[C@H](O)[C@@H]1O , and I need its recorded pKi.
RESULT: 7.66

QUERY: Tell me the measured pKi of Nc1ncnc2c1ncn2[C@@H]1C[C@H](c2ccccc2)[C@@H](O)[C@H]1O , please.
RESULT: 4.17

QUERY: What measured pKi goes with Nc1ncnc2c1ncn2[C@@H]1CC[C@@H](O)[C@H]1O ?
RESULT: 7.92

QUERY: Would you kindly share the measured pKi for Nc1ncnc2c1ncn2[C@@H]1C=C[C@@H](O)[C@H]1O ?
RESULT: 7.31
